Origin of measurements: patent US8148391B2

target: c-Met (cytoplasmic domain) (Homo sapiens, UniProt P08581); construct: 10 ng/mL c-Met (cytoplasmic domain, Invitrogen Corporation #PV3143); purchased Invitrogen Corporation PV3143; test: c-Met Kinase Assay (same methods as for ALK, with modifications); assay type: biochemical; conditions: c-Met kinase inhibition, 1 μM ATP; read-out: cMet Activity
Sequence (P08581 956-1390 limits assumed): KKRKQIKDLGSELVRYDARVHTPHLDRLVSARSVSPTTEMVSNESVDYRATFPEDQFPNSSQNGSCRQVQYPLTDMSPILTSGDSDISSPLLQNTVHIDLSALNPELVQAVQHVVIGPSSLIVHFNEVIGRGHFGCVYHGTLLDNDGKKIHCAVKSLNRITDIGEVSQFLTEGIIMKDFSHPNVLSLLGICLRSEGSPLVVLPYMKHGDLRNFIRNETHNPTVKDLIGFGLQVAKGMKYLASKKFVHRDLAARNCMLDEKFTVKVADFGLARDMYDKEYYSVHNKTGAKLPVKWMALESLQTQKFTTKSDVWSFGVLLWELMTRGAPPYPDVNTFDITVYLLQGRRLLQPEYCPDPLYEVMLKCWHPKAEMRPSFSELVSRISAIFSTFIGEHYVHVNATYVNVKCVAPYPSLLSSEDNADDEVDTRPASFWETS
pIC50: −log10 of the molar value.
Value kind: pIC50

Query string: I would be grateful if you could share the reported pIC50 for C#CCNC(=O)c1cccc(F)c1Nc1nc(Nc2ccc3c(c2)OCCCN3CCN2CCCC2)ncc1Cl [Example 1719] .
Result string: > 7.00

Query string: Can you share its pIC50? I mean this compound: CNC(=O)c1cccc(F)c1Nc1nc(Nc2ccc3c(c2)N(C(C)=O)CCCC3(C)C)ncc1Cl [Example 1596]
Result string: > 7.00

Query string: Entry under review: CN(CCC#N)C(=O)c1ccccc1Nc1nc(Nc2ccc3c(c2)CCCC(=O)N3C)ncc1Cl [Example 1682] . Reported pIC50?
Result string: 6.00 to 7.00

Query string: Look up pIC50: CNC(=O)c1cc(F)ccc1Nc1nc(Nc2ccc3c(c2)CN(C)C(=O)CC3)ncc1Cl [Example 1809]
Result string: 5.00 to 6.00

Query string: Could you share which pIC50 value was measured for CNC(=O)c1scc(C)c1Nc1nc(Nc2ccc3c(c2)CC(=O)NCC3)ncc1Cl [Example 1812] ?
Result string: > 7.00

Query string: What value of pIC50 has been reported for the following compound? COc1cc2c(cc1Nc1ncc(Cl)c(Nc3ccccc3S(=O)(=O)N(C)C)n1)CCN(CC(=O)N1CCN(C)CC1)CC2 [Example 1538]
Result string: 5.00 to 6.00

Query string: Endpoint output: pIC50 of COCCN1CCc2ccc(Nc3ncc(Cl)c(Nc4ccccc4S(=O)(=O)N4CCCC4)n3)cc2CC1 [Example 1730] . Value?
Result string: > 7.00

Query string: If you can, please state the reported pIC50 value of CNC(=O)c1ccccc1Nc1nc(Nc2ccc3c(c2)NC(=O)CNC3)ncc1Cl [Example 1858] .
Result string: > 7.00

Query string: Any idea what its pIC50 is? The compound is CN1C(=O)CCC(C)(C)c2cc(Nc3ncc(Cl)c(N[C@@H]4CCCC[C@H]4N(C)S(C)(=O)=O)n3)ccc21 [Example 1680]
Result string: 6.00 to 7.00

Query string: // query pIC50 value for entry CCN1CCN(CC)c2cc(Nc3ncc(Cl)c(N[C@@H]4CCCC[C@H]4NS(C)(=O)=O)n3)c(OC)cc2C1 [Example 1456]
Result string: < 5.00

Query string: Request the reported pIC50 associated with CCNC(=O)c1cccc(F)c1Nc1nc(Nc2ccc3c(c2)NC(=O)CCC3(C)C)ncc1Cl [Example 1575]
Result string: > 7.00

Query string: Query (compound): CN1Cc2cc(Nc3ncc(Cl)c(Nc4ccccc4-c4nccn4C)n3)ccc2CCC1=O [Example 1802] ; field requested: pIC50
Result string: 6.00 to 7.00

Query string: Fill blank: measured pIC50 of the compound CCN1C(=O)CCC(C)(C)c2ccc(Nc3ncc(Cl)c(Nc4ccccc4S(=O)(=O)N(C)C)n3)cc21 [Example 1595] is ____.
Result string: > 7.00

Query string: Please give the measured pIC50 for this compound: COc1cc2c(cc1Nc1ncc(Cl)c(N[C@H]3[C@@H](C(N)=O)[C@@H]4C=C[C@H]3C4)n1)NC(=O)CN(CC1CC1)C2 [Example 1667]
Result string: < 5.00

Query string: Consider the compound shown here: CCN1C(=O)CN(S(C)(=O)=O)Cc2ccc(Nc3ncc(Cl)c(Nc4ccsc4C(=O)NC)n3)cc21 [Example 1872] What is its recorded pIC50?
Result string: 5.00 to 6.00
